Molecular target: Polyunsaturated fatty acid 5-lipoxygenase (Homo sapiens)
Assay: Inhibition of 5-LO in A23187-stimulated human HEK293 cells assessed as reduction in 5-LO product level at 1 uM preincubated for 5 mins followed by A23187, arachidonic acid addition and measured after 15 mins by RP-HPLC analysis relative to control
Type: cell-based
Activity calls are given as the source filed them. No cut-off for these calls is given here.
Assign a class; possible classes are T = active, F = inactive

COc1cc(/C=C/C(=O)OCCc2ccccc2F)cc(OC)c1O
T
COc1cc(/C=C/C(=O)OCCc2ccc(C(F)(F)F)cc2)cc(OC)c1O
T
COc1cc(/C=C/C(=O)OCCc2ccccc2C(F)(F)F)cc(OC)c1O
T

Just curious, what result did COc1cc(CCC(=O)CCc2ccccc2)cc(OC)c1O get here? T

Then this compound: COc1cc(/C=C/C(=O)OCCc2ccc(C)cc2)cc(OC)c1O T

Then this compound: COc1cc(/C=C/C(=O)OCCc2ccc(F)cc2)cc(OC)c1O T

Then this compound: COc1cc(CC(=O)OCCc2ccccc2)cc(OC)c1O F

Then this compound: COc1cc(/C=C/C(=O)OCCc2cccc(C(F)(F)F)c2)cc(OC)c1O T

Then this compound: COc1cc(/C=C/C(=O)OCCc2ccccc2)cc(OC)c1 F
